# Tested on: Proteus rettgeri KY4289
# protocol.details: Heart Infusion Agar Dilution Method, minimum inhibitory concentration
# Type: cell-based
# measurement.conditions: Providencia rettgeri; Proteus rettgeri KY4289; Heart Infusion Agar Dilution Method, pH 7.2; read-out: Minimum Inhibitory Concentration
This listing pairs compounds with measured MIC.
// note: answer is a bare numeric in µg/mL

Guide cases for MIC, answers given:
[[record]]
compound = "N[C@@H](C(=O)N[C@@H]1C(=O)N2C(C(=O)O)=C(Cl)CC[C@H]12)c1ccc(O)cc1"
unit_tag = "µg/mL"
recorded_number = 100

[[record]]
compound = "CO/N=C(\\C(=O)N[C@@H]1C(=O)N2C(C(=O)O)=C(Cl)CC[C@H]12)c1ccco1 (relative stereo)"
unit_tag = "µg/mL"
recorded_number = 25

[[record]]
compound = "CO/N=C(\\C(=O)N[C@@H]1C(=O)N2C(C(=O)O)=C(Cl)CC[C@H]12)c1csc(N)n1 (relative stereo)"
unit_tag = "µg/mL"
recorded_number = 0.1

[[record]]
compound = "N[C@@H](C(=O)N[C@@H]1C(=O)N2C(C(=O)O)=C(Cl)CC[C@H]12)c1ccccc1"
unit_tag = "µg/mL"
recorded_number = 100


In the following, a different compound is considered.
Provide only the value of recorded MIC for `CCN1CCN(C(=O)N[C@@H](C(=O)N[C@@H]2C(=O)N3C(C(=O)O)=C(Cl)CC[C@H]23)c2ccccc2)C(=O)C1=O`
3.12
